- target desc: JAK3 (Homo sapiens, UniProt P52333)
- Sequence (P52333 1-1124): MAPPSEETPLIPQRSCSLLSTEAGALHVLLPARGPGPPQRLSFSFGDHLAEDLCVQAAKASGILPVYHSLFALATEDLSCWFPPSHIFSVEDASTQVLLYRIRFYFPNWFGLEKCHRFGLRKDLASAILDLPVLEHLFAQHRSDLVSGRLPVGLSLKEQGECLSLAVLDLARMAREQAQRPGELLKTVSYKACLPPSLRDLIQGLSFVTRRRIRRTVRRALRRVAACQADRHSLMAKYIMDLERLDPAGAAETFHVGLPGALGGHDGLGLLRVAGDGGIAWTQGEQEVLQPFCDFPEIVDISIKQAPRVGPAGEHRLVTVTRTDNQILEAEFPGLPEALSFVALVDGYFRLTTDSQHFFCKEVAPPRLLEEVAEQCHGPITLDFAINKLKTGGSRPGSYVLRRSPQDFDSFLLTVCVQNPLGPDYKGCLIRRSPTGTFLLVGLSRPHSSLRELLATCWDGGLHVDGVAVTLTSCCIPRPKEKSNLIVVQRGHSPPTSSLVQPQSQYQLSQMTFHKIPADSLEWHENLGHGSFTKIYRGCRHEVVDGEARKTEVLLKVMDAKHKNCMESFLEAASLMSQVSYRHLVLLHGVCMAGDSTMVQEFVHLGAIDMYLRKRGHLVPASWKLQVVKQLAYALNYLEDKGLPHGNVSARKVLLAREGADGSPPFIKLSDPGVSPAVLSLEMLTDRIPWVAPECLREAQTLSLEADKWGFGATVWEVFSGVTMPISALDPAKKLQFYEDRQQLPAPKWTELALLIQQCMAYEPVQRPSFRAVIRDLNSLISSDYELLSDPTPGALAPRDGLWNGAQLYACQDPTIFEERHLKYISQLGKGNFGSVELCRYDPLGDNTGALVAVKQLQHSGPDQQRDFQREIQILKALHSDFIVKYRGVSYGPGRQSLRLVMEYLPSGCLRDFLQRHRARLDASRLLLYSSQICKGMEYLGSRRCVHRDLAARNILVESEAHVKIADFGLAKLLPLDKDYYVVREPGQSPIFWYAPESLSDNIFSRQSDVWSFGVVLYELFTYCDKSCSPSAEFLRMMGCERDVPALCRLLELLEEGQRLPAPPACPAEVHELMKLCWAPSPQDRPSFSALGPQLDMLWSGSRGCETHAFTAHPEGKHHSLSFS
- procedure summary: JAK3 Inhibition Assay (33P incorporation into poly(Glu)4Tyr)
- Type: biochemical
- experimental conditions: at concentrations of 50 μM
property measured: inhibition of JAK3 at concentrations of 50 μM

{"columns": ["compound", "data value"],
 "data": [
  ["O=C(NCC(F)(F)F)[C@@H]1CCCN1c1nc(-c2cccnc2F)ncc1F [Compound 24]", "did not inhibit"],
  ["Nc1nc2ccc(-c3ncc(F)c(N4CCC[C@@H]4C(=O)NCC(F)(F)F)n3)cc2s1 [Compound 90]", "did not inhibit"],
  ["CC(C)NC(=O)c1cc(-c2ncc(F)c(N3CCC[C@@H]3C(=O)NCC(F)(F)F)n2)c[nH]1 [Compound 117]", "did not inhibit"],
  ["COc1ccc(-c2nccc(N3CCC[C@@H]3C(=O)NCC(F)(F)F)n2)cn1 [Compound 62]", "did not inhibit"],
  ["COc1ccc(-c2nccc(NC(C)(C)C(=O)NCC(F)(F)F)n2)cc1 [Compound 149]", "did not inhibit"],
  ["C[C@@H](Nc1nc(-c2ccc(F)nc2)ncc1F)C(=O)NCC(F)(F)F [Compound 19]", "did not inhibit"],
  ["COc1ccc(-c2ncc(F)c(N[C@H](C)C(=O)NCC(F)(F)F)n2)cn1 [Compound 18]", "did not inhibit"],
  ["CC(C)(Nc1ccnc(-c2c[nH]c(C(=O)O)c2)n1)C(=O)NCC(F)(F)F [Compound 128]", "did not inhibit"]
]}

---

- target desc: JAK3 (Homo sapiens, UniProt P52333)
pKi: −log10 of the molar value.

{"columns": ["smiles representation", "pKi"],
 "data": [
  ["COc1ccc(Nc2nc(N)n(-c3nccc(N[C@H](C(=O)NCC(F)(F)F)C(C)C)n3)n2)cc1", "≥ 6.00"],
  ["O=C(NCC(F)(F)F)[C@H]1CCCN1c1nc(-c2c[nH]c(C(=O)N3CC=CC3)c2)ncc1F", "≥ 6.00"],
  ["O=C(NCC(F)(F)F)[C@@H]1CCCN1c1nc(-c2cccnc2)ncc1F", "5.00 to 6.00"],
  ["O=C(CNc1nc(-c2cccnc2F)ncc1F)NCC(F)(F)F", "4.30 to 5.00"],
  ["O=C(NCC(F)(F)F)[C@H]1CCCN1c1nc(-c2ccc3ncccc3c2)ncc1F", "4.30 to 5.00"],
  ["CC(=O)Nc1nc2ccc(-c3nccc(N4CCC[C@@H]4C(=O)NCC(F)(F)F)n3)cc2s1", "4.30 to 5.00"],
  ["CC(C)(Nc1nc(-c2ccc3ncccc3c2)ncc1F)C(=O)NCC(F)(F)F", "≥ 6.00"],
  ["CC(C)[C@@H](Nc1nc(-c2ccc3nc(N)sc3c2)ncc1F)C(=O)NCC(F)(F)F", "5.00 to 6.00"],
  ["CC(C)(Nc1ccnc(-c2c[nH]c(C(=O)NC3CC3)c2)n1)C(=O)NCC(F)(F)F", "5.00 to 6.00"],
  ["CNC(=O)c1cc(-c2ncc(F)c(N[C@@H](C(=O)NCC(F)(F)F)C(C)C)n2)c[nH]1", "4.30 to 5.00"],
  ["COc1ccc(Nc2nc(N)n(-c3ncc(F)c(N4CCC[C@@H]4C(=O)NCC(F)(F)F)n3)n2)cc1", "5.00 to 6.00"]
]}

---

Each record here notes measured pKi.
- target desc: UniProtKB P52333
- Sequence (P52333 1-1124): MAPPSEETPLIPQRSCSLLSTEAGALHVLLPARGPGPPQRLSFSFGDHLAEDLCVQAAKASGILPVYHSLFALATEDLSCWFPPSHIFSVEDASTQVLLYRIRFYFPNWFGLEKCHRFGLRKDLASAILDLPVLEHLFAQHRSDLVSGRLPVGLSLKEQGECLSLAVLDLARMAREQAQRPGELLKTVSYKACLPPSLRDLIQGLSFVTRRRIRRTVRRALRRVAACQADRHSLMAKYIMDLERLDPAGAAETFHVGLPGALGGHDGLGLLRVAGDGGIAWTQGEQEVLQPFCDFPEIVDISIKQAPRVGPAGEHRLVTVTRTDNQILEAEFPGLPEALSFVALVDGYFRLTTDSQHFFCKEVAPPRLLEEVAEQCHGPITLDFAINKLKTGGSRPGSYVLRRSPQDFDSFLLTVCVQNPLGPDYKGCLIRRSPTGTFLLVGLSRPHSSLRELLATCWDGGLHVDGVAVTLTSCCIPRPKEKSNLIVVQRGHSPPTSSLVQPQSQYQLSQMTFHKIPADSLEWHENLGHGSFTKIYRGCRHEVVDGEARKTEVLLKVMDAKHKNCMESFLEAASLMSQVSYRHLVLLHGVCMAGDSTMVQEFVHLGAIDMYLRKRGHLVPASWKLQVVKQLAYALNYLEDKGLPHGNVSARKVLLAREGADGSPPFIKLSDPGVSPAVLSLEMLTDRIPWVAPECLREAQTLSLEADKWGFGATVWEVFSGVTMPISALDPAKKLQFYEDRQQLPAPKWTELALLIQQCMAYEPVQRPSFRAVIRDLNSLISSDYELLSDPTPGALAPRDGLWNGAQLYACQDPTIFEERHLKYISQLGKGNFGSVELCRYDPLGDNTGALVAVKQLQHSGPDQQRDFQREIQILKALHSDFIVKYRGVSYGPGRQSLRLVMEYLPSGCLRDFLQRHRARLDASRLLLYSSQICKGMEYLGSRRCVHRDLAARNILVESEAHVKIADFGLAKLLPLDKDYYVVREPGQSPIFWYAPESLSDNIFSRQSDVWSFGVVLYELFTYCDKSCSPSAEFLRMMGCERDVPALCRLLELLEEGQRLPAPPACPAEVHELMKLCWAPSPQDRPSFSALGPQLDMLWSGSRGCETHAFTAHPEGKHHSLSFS
pKi: −log10 of the molar value.
property measured: pKi

{"columns": ["smiles representation", "property measured", "data value"],
 "data": [
  ["CC(C)(Nc1ccnc(-c2c[nH]c(=O)c(N)c2)n1)C(=O)NCC(F)(F)F", "pKi", "5.00 to 6.00"],
  ["CC(C)[C@@H](Nc1ccnc(-c2ccc3ncsc3c2)n1)C(=O)NCC(F)(F)F", "pKi", "≥ 6.00"],
  ["O=C(NCc1ccccc1)c1cc(-c2ncc(F)c(N3CCC[C@@H]3C(=O)NCC(F)(F)F)n2)c[nH]1", "pKi", "4.30 to 5.00"],
  ["O=C(NCC(F)(F)F)[C@H]1CCCN1c1nc(-c2ccc(O)cc2)ncc1F", "pKi", "4.30 to 5.00"],
  ["O=C(NCC1CC1)c1cc(-c2ncc(F)c(N3CCC[C@@H]3C(=O)NCC(F)(F)F)n2)c[nH]1", "pKi", "4.30 to 5.00"],
  ["CC(C)(Nc1ccnc(-c2c[nH]c3ccc(Cl)cc23)n1)C(=O)NCC(F)(F)F", "pKi", "5.00 to 6.00"],
  ["CC(C)(Nc1nc(-c2c[nH]c(C(=O)NC3CC3)c2)ncc1F)C(=O)NCC(F)(F)F", "pKi", "5.00 to 6.00"],
  ["CC(C)[C@@H](Nc1ccnc(-c2c[nH]c(C(=O)N3CC=CC3)c2)n1)C(=O)NCC(F)(F)F", "pKi", "≥ 6.00"],
  ["CC(C)(Nc1nc(-c2ccc3ncsc3c2)ncc1F)C(=O)NCC(F)(F)F", "pKi", "≥ 6.00"],
  ["CC(C)(Nc1nc(-c2c[nH]c(C(=O)O)c2)ncc1F)C(=O)NCC(F)(F)F", "pKi", "5.00 to 6.00"],
  ["CC(C)[C@@H](Nc1ccnc(-c2c[nH]c(C(=O)NCC3CC3)c2)n1)C(=O)NCC(F)(F)F", "pKi", "5.00 to 6.00"],
  ["Nc1nc2ccc(-c3nccc(N4CCC[C@@H]4C(=O)NCC(F)(F)F)n3)cc2s1", "pKi", "5.00 to 6.00"],
  ["CCNC(=O)c1cc(-c2ncc(F)c(NC(C)(C)C(=O)NCC(F)(F)F)n2)c[nH]1", "pKi", "5.00 to 6.00"],
  ["O=C(CNc1nc(-c2cccnc2)ncc1F)NCC(F)(F)F", "pKi", "5.00 to 6.00"],
  ["CC(C)(Nc1ccnc(-c2c[nH]c(C(=O)NCc3ccccc3)c2)n1)C(=O)NCC(F)(F)F", "pKi", "4.30 to 5.00"],
  ["CC(C)[C@@H](Nc1ccnc(-c2ccc3nc(N)sc3c2)n1)C(=O)NCC(F)(F)F", "pKi", "5.00 to 6.00"]
]}
